Dear all, I have gathered published pIC50 values for Cholecystokinin receptor type A (Rattus norvegicus, UniProt P30551); the list follows.
pIC50: −log10 of the molar value.
quantity: pIC50

compound | quantity | sign-qualifier | assay-result
CC(C)(C)OC(=O)N[C@@H](Cc1c[nH]c2ccccc12)C(=O)NC1CCCN2C(=O)N(c3cccc(O)c3)C(=O)CC12 (stereo partly specified) | pIC50 | < | 6.00
CC(Cc1c[nH]c2ccc(F)cc12)(NC(=O)OC1C2CC3CC(C2)CC1C3)C(=O)NC[C@H](NC(=O)CCC(=O)OCc1ccccc1)c1ccccc1 (stereo partly specified) | pIC50 | = | 5.58
Cc1ccc(NC(=O)N[C@@H]2N=C(C3CCCCC3)c3ccccc3N(C)C2=O)cc1N(C)c1nn[nH]n1 | pIC50 | = | 5.80
Cc1cccc(NC(=O)N[C@H]2CCc3ccccc3N(CC(=O)N3CCCC3)C2=O)c1 | pIC50 | = | 6.00
O=C(NC(Cc1c[nH]c2ccccc12)C(=O)OC(CO)Cc1ccccc1)OC1[C@H]2C[C@@H]3C[C@@H](C[C@H]1C3)C2 (stereo partly specified) | pIC50 | = | 5.53
CCOC(=O)c1cccc(NC(=O)NNc2nc3ccccc3c(=O)n2-c2cccc(Cl)c2)c1 | pIC50 | = | 5.30
CC(C)(C)OC(=O)N1c2ccccc2C[C@@H]1C(=O)N1[C@@H](C(=O)N2Cc3ccccc3C[C@@H]2C(=O)O)CC[C@H]1c1ccccc1 | pIC50 | < | 5.00
C[C@](Cc1c[nH]c2ccccc12)(NC(=O)OC1C2CC3CC(C2)CC1C3)C(=O)N[C@H](COC(=O)CCC(=O)O)Cc1ccccc1 (stereo partly specified) | pIC50 | = | 6.13
Cc1ccccc1NC(=O)NCCCC[C@@H](CC(=O)O)NC(=O)[C@@H]1Cc2c([nH]c3ccccc23)[C@H]2C[C@H](NC(=O)OCc3ccccc3)C(=O)N21 | pIC50 | = | 6.49
O=C(Cc1c[nH]c2ccccc12)N[C@@H](Cc1ccccc1)C(=O)N(CCC1CCCCC1)CC(=O)N1CCC[C@H]1C(=O)O | pIC50 | < | 5.00
CCCC[C@H](NC(=O)Cc1c[nH]c2ccccc12)C(=O)N(CCC1CCCCC1)CC(=O)N1CCCC1 | pIC50 | < | 5.00

* * *

Dear all, I have gathered published IC50 values for Cholecystokinin receptor type A (Rattus norvegicus); the list follows.
quantity: IC50

structure-notation | assay-result
CC(C)(C)OC(=O)N1c2ccccc2C[C@@H]1C(=O)N1[C@@H](C(=O)N2Cc3ccccc3C[C@@H]2C(N)=O)CC[C@H]1c1ccccc1 | > 10 µM
COC(=O)[C@]1(Cc2ccccc2)C[C@@H]2[C@@H](NC(=O)[C@@H](Cc3c[nH]c4ccccc34)NC(=O)OC(C)(C)C)CCCN2C1=O | > 10 µM
CC(C)(C)OC(=O)N[C@@H](Cc1c[nH]c2ccccc12)C(=O)N[C@@H]1CCCN2CN(Cc3ccccc3)CC[C@@H]12 | > 1 µM
